- system: human insulin (Homo sapiens, UniProt P01308)
- Construct: Human insulin (I2643, recombinant, expressed in yeast); 51 amino acids divided into two chains
- Sequence (P01308 25-54): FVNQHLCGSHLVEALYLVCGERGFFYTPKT
- Sequence (P01308 90-110): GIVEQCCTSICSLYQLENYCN
- procedure text: ThT fluorescence assay of insulin amyloid aggregation ([…] insulin, pH […] °C), supported by kinetics, AFM and ATR-FTIR
measurement kind: pIC50
# reply with the number alone; pIC50 is -log10 of concentration in mol/L

Data request: Request body: readout pIC50, system human insulin (Homo sapiens, UniProt P01308), query O=C(O[C@@H]1Cc2c(O)cc(O)cc2O[C@@H]1c1cc(O)c(O)c(O)c1)c1cc(O)c(O)c(O)c1 [EGCG, (-)-epigallocatechin gallate] . Return the value.
Data returned: 3.32

The reported numbers originate from paper PMC7272432.
